# assayInfo: Metabolic stability in liver microsomes
# Type: in vitro ADME
# particulars: read-out: t1/2 liver microsomes
Documented half-life across a set of molecules
# output: number + unit

Give the reported value of half-life for this record: `CN(C(=O)Oc1ccc(C(F)(F)F)cc1C(F)(F)F)c1ccc(F)cc1`
6.2 min

Give the reported value of half-life for this record: `CN(C(=O)Oc1c(Cl)cc(Cl)c2cccnc12)c1ccccc1`
1.5 min

---

# assayedSystem: Polθ-pol (Homo sapiens)
# Construct: purified recombinant human Polθ-pol (comprising amino acid residues 1792–2590)
# Sequence (O75417 1792-2590): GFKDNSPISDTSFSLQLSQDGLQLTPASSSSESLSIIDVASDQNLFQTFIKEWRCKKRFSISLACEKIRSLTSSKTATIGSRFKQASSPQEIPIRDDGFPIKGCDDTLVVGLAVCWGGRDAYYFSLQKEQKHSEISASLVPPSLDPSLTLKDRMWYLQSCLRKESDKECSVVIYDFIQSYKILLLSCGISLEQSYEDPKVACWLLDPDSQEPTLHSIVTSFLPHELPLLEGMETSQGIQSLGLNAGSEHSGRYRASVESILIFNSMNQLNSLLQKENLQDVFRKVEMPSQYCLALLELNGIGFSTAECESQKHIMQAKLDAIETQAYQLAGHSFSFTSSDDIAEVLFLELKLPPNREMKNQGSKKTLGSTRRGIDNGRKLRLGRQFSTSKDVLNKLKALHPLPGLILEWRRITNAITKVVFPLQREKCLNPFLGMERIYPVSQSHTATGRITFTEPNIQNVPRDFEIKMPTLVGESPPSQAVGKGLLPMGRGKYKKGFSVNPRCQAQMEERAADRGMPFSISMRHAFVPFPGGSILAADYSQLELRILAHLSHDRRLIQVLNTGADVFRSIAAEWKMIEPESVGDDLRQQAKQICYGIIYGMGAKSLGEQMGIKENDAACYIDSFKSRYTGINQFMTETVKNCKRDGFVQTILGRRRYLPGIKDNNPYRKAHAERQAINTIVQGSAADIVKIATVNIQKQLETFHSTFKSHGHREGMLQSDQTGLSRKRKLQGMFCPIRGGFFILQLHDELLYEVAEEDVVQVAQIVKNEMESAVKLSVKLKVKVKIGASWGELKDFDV
# assayInfo: Cy5 fluorescence Polθ-pol DNA synthesis (strand displacement) IC50 assay
# particulars: Polθ-pol DNA synthesis, Cy5 fluorescence
measure: IC50 (nM)
Respond numerically; units are nM and should not be typed.

// known answers, use as guide
compound	assayedSystem	measure	unitInfo	numericValue
Nc1ccc(C#CCN(C(=O)Cc2ncc(C(F)(F)F)cc2C(F)(F)F)c2ccc(F)cc2)nn1 [RP6685, reference compound]	Polθ-pol (Homo sapiens)	IC50	nM	6.9
Cc1cccc(N(C)C(=O)[C@@H]2[C@H](O)CCN2c2nc(C)cc(C(F)(F)F)c2C#N)c1 [ART558, reference compound]	Polθ-pol (Homo sapiens)	IC50	nM	11.4
CN(C(=O)Oc1c(Cl)cc(Cl)c2cccnc12)c1ccccc1	Polθ-pol (Homo sapiens)	IC50	nM	160

Give the reported value of IC50 for this record: `CN(C(=O)Oc1ccc(C(F)(F)F)cc1C(F)(F)F)c1ccc(F)cc1`
9

---

Documented logP across a set of compounds
# assayInfo: LogP
# Assay type: physicochemical
# particulars: method not stated
Number only, no unit.

compoundString	numericValue
CN(C(=O)Oc1c(N2CCN(CCO)C2=O)cc(C(F)(F)F)cc1C(F)(F)F)c1ccc(F)cc1	3.6

Give the reported value of logP for this record: `CN1CCN(c2cc(C(F)(F)F)cc(C(F)(F)F)c2OC(=O)N(C)c2ccc(F)cc2)C1=O`
4.2

---

# Tested on: DLD1 BRCA2 -/- cells
# assayInfo: Clonogenic assay
# Type: cell-based
# particulars: DLD1 cells; label beside BRCA2-null curve; read-out: IC50 clonogenic survival
measure: IC50

Under DLD1 BRCA2 -/- cells, report IC50 for Nc1ccc(C#CCN(C(=O)Cc2ncc(C(F)(F)F)cc2C(F)(F)F)c2ccc(F)cc2)nn1 [RP6685, reference compound]
~4.5 µM

---

Documented IC50 across a set of compounds
# Tested on: DLD1 BRCA2 -/- cells
# assayInfo: Clonogenic assay
# Format: cell-based
# particulars: Homo sapiens, DLD-1, read-out: IC50 clonogenic survival

compoundString	assayedSystem	result
CN(C(=O)Oc1c(N2CCN(CCO)C2=O)cc(C(F)(F)F)cc1C(F)(F)F)c1ccc(F)cc1	DLD1 BRCA2 -/- cells	~1 µM

Give the reported value of IC50 for this record: `CN1CCN(c2cc(C(F)(F)F)cc(C(F)(F)F)c2OC(=O)N(C)c2ccc(F)cc2)C1=O`
~6 µM
